The origin of these recorded values is patent US8653076B2.

System: protein kinase C theta (Homo sapiens)
Sequence (Q04759 whole entry): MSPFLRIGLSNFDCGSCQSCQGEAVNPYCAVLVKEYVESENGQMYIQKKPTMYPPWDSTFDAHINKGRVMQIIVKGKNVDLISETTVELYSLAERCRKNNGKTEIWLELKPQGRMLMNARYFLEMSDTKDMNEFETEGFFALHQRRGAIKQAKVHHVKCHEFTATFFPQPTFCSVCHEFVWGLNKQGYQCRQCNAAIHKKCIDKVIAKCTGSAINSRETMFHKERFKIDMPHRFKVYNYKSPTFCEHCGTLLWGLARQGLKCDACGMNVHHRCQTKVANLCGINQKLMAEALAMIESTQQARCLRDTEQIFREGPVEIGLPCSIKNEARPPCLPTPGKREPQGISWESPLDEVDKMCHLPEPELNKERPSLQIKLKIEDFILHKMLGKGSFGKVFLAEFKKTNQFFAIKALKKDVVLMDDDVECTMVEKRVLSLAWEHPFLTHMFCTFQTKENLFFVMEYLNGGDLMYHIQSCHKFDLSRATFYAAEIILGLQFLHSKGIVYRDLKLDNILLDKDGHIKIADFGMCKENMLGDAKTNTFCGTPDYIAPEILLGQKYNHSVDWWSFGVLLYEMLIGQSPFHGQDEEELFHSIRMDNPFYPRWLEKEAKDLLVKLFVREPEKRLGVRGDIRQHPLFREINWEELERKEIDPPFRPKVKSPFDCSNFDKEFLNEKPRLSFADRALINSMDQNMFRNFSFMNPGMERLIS
Test: PKC-theta HTRF kinase assay
Cond: recombinant PKC-theta, 10 μM ATP, read-out: Inhibition of PKC theta IC50
Measured Parameter: IC50 (µM)
# unit: µM | format: bare number

Task: Answer with IC50 of Clc1cccc(-c2cnc3ccc(OCCCN4CCOCC4)nn23)c1 [Example 1] measured for protein kinase C theta (Homo sapiens).
Result: 4.1
